Hello, the source for this data is patent US20190233493A1, in case you need it.

- measured target: T1, RXFP1 receptor (UniProt Q9HBX9 1-757, limits assumed)
- T1 sequence (looked up): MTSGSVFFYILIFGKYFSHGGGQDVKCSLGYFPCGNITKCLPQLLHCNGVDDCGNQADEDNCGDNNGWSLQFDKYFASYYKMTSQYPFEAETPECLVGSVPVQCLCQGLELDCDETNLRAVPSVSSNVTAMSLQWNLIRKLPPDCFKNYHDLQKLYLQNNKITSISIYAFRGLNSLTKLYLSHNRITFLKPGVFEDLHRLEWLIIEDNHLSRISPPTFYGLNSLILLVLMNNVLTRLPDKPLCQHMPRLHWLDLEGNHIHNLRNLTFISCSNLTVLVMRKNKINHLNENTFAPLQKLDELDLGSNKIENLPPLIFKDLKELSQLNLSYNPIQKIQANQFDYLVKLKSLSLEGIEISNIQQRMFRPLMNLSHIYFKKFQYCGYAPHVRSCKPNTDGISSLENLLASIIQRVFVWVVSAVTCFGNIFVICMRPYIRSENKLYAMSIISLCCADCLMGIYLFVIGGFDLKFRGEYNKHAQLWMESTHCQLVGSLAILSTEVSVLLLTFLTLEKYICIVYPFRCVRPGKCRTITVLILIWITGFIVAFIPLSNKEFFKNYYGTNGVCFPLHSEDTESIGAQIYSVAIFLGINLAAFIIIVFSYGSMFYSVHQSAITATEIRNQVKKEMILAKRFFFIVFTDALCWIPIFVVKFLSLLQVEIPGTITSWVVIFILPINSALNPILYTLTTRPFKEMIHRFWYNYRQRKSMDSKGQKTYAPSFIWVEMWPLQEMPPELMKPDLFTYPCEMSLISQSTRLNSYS
- experiment: cell-based or functional assay
*1 amine or outer side, *2 acyl side, *3 side chain or, on linkers, in order; H or OH if unused. Primed or numbered codes have the meaning given here. Side-chain parts run from the residue outwards. [ ]: non-standard residue; d: D form. The star is where a group is joined. PEG28′ = polyethylene glycol spacer with 28 ethoxy units (aminoethoxy-ethoxy chain); γGlu = O=C(O)[C@H](CCC(=O)[*:2])N[*:1]; Arg(Me) = CNC(=N)NCCC[C@H](N)C(=O)O; Stearoyl = CCCCCCCCCCCCCCCCCC(=O)*; Nle = CCCC[C@H](N)C(=O)O; PEG2′ = PEG2 spacer unit; Aib = CC(C)(N)C(=O)O
Listing of entries alongside the reported EC50 (nM), OVCAR 5 cells (cAMP).
Please state the figure in nM; there is no need to write the unit.

Ac-LEGREKVRAK(Ac)I[Aib][Aib]EG[Nle]STWS[Aib]RKK(Ac)[PEG28′]K([γGlu-γGlu-γGlu-Stearoyl])-NH2 [peptide of SEQ ID NO: 49] :: 1.65

Q. Identify measured EC50 (nM), OVCAR 5 cells (cAMP) corresponding to Ac-LEGREKVRAK(Ac)I[Aib][Aib]EG[Nle]STWS[Aib][Arg(Me)]KK(Ac)K([PEG2′-PEG2′-PEG2′-γGlu-γGlu-γGlu-Stearoyl])-NH2 [peptide of SEQ ID NO: 133]
A. 0.01
